Data provenance is patent US20140161799A1.

A collection of binders and their measured mean fluorescence relative to chimeric antibody
study.system: T1, human CD47 (human, UniProt Q08722 19-323)
T1 construct: whole, on cells; also called CD47 on human red blood cells
T1 sequence (Q08722 19-323): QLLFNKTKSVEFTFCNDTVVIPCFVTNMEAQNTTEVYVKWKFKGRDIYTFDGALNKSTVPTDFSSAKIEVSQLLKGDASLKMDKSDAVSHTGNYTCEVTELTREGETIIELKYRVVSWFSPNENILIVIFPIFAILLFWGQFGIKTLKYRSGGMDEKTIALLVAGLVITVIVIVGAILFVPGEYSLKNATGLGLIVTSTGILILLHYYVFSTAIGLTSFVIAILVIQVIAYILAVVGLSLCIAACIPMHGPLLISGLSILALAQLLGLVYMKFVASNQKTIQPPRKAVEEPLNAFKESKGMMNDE
experiment.summary: flow cytometry on RBCs, antibody 10 ng/ml

Worked examples, 2 binders total:
pVxK7b-037-hum24-LC/pVxK7b-037-hum24-HC (antibody, human IgG1, V domains shown, Full-length human IgG1/kappa in CHO supernatant; Variable entries end within framework 4 (...FGQG / ...WGQG); also called Clone 24) VH: QVQLQESGPGLVKPGATVKISCKVSGYTFTNYYVFWVRQARGQRLEWIGDINPVNGDTNFNEKFKNRVTITADKSTSTAYMELSSLRSEDTAVYYCARGGYTMDYWGQG VL: AIQLTQSPSSLSASVGDRVTITCRSSQSLVHSNGNTYLHWYQQKPGQAPRLLIYKVSYRFSGVPSRFSGSGSGTEFTLTISSLQPDDFATYYCSQNTHVPRTFGQG
0.8 fold of chimera
pVxK7b-037-hum23-LC/pVxK7b-037-hum23-HC (antibody, human IgG1, V domains shown, Full-length human IgG1/kappa in CHO supernatant; Variable entries end within framework 4 (...FGQG / ...WGQG); also called Clone 23) VH: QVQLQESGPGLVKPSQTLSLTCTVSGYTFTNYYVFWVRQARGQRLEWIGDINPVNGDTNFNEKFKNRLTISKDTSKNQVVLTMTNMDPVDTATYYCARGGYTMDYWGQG VL: DIVMTQTPLSLPVTPGEPASISCRSSQSLVHSNGNTYLHWYQQKPGKAPKLLIYKVSYRFSGVPDRFSGSGSGTDFTLKISRVEAEDVGVYYCSQNTHVPRTFGQG
1.2 fold of chimera

Ask: Fill in mean fluorescence relative to chimeric antibody for record chimeric antibody VxP037-01LC/VxP037-01HC (antibody, human IgG1, kappa, V domains shown, tested as CHO supernatant; also called Chimera; VxP037-01-LC-Pro/VxP037-01-HC-Pro) VH: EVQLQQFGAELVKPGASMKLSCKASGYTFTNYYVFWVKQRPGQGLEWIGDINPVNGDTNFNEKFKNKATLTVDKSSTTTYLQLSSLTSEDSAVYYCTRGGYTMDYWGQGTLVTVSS VL: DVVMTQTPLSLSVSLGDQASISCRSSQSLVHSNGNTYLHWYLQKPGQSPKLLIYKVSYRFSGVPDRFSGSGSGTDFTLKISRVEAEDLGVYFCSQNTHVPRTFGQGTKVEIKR
Reply: 1 fold of chimera

Ask: Fill in mean fluorescence relative to chimeric antibody for record pVxK7b-037-hum13-LC/pVxK7b-037-hum13-HC (antibody, human IgG1, V domains shown, Full-length human IgG1/kappa in CHO supernatant; Variable entries end within framework 4 (...FGQG / ...WGQG); also called Clone 13) VH: EVQLVQSGAEVKKPGESLRISCKGSGYTFTNYYVFWIRQSPSRGLEWLGDINPVNGDTNFNEKFKNRVTITADKSTSTAYMELSSLRSEDTAVYYCARGGYTMDYWGQG VL: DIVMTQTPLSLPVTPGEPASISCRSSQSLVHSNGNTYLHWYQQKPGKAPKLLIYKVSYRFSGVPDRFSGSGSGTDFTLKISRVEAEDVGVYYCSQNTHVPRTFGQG
Reply: 1.2 fold of chimera

Ask: Fill in mean fluorescence relative to chimeric antibody for record pVxK7b-037-hum12-LC/pVxK7b-037-hum12-HC (antibody, human IgG1, V domains shown, Full-length human IgG1/kappa in CHO supernatant; Variable entries end within framework 4 (...FGQG / ...WGQG); also called Clone 12) VH: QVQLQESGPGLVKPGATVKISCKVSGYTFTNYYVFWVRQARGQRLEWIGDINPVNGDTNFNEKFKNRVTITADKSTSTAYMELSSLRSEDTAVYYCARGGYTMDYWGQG VL: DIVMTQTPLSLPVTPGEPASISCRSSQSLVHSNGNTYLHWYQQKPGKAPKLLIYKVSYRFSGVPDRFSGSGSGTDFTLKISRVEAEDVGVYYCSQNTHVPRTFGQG
Reply: 0.8 fold of chimera

Ask: Fill in mean fluorescence relative to chimeric antibody for record pVxK7b-037-hum17-LC/pVxK7b-037-hum17-HC (antibody, human IgG1, V domains shown, Full-length human IgG1/kappa in CHO supernatant; Variable entries end within framework 4 (...FGQG / ...WGQG); also called Clone 17) VH: EVQLVQSGAEVKKPGATVKISCKVSGYTFTNYYVFWIRQPPGKGLEWIGDINPVNGDTNFNEKFKNRVTITADKSTSTAYMELSSLRSEDTAVYYCARGGYTMDYWGQG VL: AIQLTQSPSSLSASVGDRVTITCRSSQSLVHSNGNTYLHWYQQKPGQAPRLLIYKVSYRFSGVPDRFSGSGSGTDFTLKISRVEAEDVGVYYCSQNTHVPRTFGQG
Reply: 0.8 fold of chimera

Ask: Fill in mean fluorescence relative to chimeric antibody for record pVxK7b-037-hum04-LC/pVxK7b-037-hum04-HC (antibody, human IgG1, V domains shown, Full-length human IgG1/kappa in CHO supernatant; Variable entries end within framework 4 (...FGQG / ...WGQG); also called Clone 4) VH: QVQLQESGPGLVKPSQTLSLTCTVSGYTFTNYYVFWVRQAPGKGLEWVSDINPVNGDTNFNEKFKNRVTISVDTSKNQFSLKLSSVTAADTAVYYCARGGYTMDYWGQG VL: DIQMTQSPSSLSASVGDRVTITCRSSQSLVHSNGNTYLHWYLQKPGQSPQLLIYKVSYRFSGIPARFSGSGSGTEFTLTISSLQSEDFAVYYCSQNTHVPRTFGQG
Reply: 0.6 fold of chimera
